Protocol Text: Toxicity in po dosed CD1 mouse administered qd for 7 days
Type: organism-based
Reported Conditions: in vivo
Assay Endpoint: MTD at 168 h (mg/kg)
I only need the number, in mg/kg, no unit after it.

> print(dat)
                                  smiles  value
1  COc1cccc(CNCCCNc2ccnc3cc(Cl)ccc23)c1O    400

We next turn to a different molecule, shown below.
Prompt line: Entry Clc1ccc2c(NCCCNCc3cccc4c3OCO4)ccnc2c1 : reported MTD at 168 h = ?
Response line: 100

====

The reader will find reported permeability values listed item by item below.
Protocol Text: Permeability by PAMPA assay at pH 6.2
Format: ADME
Could you give me the number in ×10⁻⁶ cm/s? Just the number is fine.

> print(dat)
                                   compound  assay.endpoint  value
1     Clc1ccc2c(NCCCNCc3cccc4c3OCO4)ccnc2c1    permeability    979
2  CCN(CC)CCCC(C)Nc1ccnc2cc(C(F)(F)F)ccc12 (centres undefined)    permeability    235

Prompt line: Returns the measured permeability for the input compound. Input: CCCN(CCCNc1ccnc2cc(Cl)ccc12)CC1CC1
Response line: 2

Prompt line: Also check CCN(CC)CCCC(C)Nc1ccnc2cc(Cl)ccc12 (centres undefined)
Response line: 51

====

Protocol Text: Permeability by PAMPA assay at pH 7.4
Assay type: ADME
Assay Endpoint: permeability (×10⁻⁶ cm/s)
Use ×10⁻⁶ cm/s as the unit, but write only the number.

Check out these entries, answers already filled in.
> print(dat)
                                   molecule  assay.endpoint  value
1  CCN(CC)CCCC(C)Nc1ccnc2cc(Cl)ccc12 (stereo not given)    permeability    775
2     Clc1ccc2c(NCCCNCc3cccc4c3OCO4)ccnc2c1    permeability   2400
3  CCN(CC)CCCC(C)Nc1ccnc2cc(C(F)(F)F)ccc12 (stereo not given)    permeability   2704
4        CCCN(CCCNc1ccnc2cc(Cl)ccc12)CC1CC1    permeability   1109

Query molecule follows.
Prompt line: For the molecule shown here, COc1cccc(CNCCCNc2ccnc3cc(Cl)ccc23)c1O , give the reported permeability.
Response line: 1363

====

Protocol Text: Cmax in CD1 mouse at 50 mg/kg, po
Type: ADME, organism-based
Set-up: dose 50 mg/kg, route oral
Reported Conditions: in vivo
Cmax values by entry
// units = nM; emit number, no label

Some compounds with recorded Cmax:
> print(dat)
                                   compound  value
1     Clc1ccc2c(NCCCNCc3cccc4c3OCO4)ccnc2c1    240
2  CCN(CC)CCCC(C)Nc1ccnc2cc(Oc3ccccc3)ccc12 (stereo not given)    261

Prompt line: Given CCCN(CCCNc1ccnc2cc(Cl)ccc12)CC1CC1 , state its recorded Cmax.
Response line: 437

Prompt line: # iterate: CCN(CC)CCCC(C)Nc1ccnc2cc(Cl)ccc12 (stereo not given)
Response line: 444

Prompt line: Next compound up: COc1cccc(CNCCCNc2ccnc3cc(Cl)ccc23)c1O
Response line: 65.9

====

Protocol Text: AUClast in CD1 mouse at 50 mg/kg, po
Type: ADME, organism-based
Parameters: time 0 - last, dose 50 mg/kg, route oral
Reported Conditions: plasma
Readings of AUC(0-t) for the listed compounds
Give the number; µM·h is assumed, so skip it.

Here are 4 compounds together with their reported answers.
> print(dat)
                                   compound  value
1     Clc1ccc2c(NCCCNCc3cccc4c3OCO4)ccnc2c1   2.03
2        CCCN(CCCNc1ccnc2cc(Cl)ccc12)CC1CC1   6.79
3  CCN(CC)CCCC(C)Nc1ccnc2cc(Oc3ccccc3)ccc12 (stereo not given)  0.726
4  CCN(CC)CCCC(C)Nc1ccnc2cc(Cl)ccc12 (stereo not given)   2.64

# ---- query compound ----
Prompt line: Request the reported AUC(0-t) associated with COc1cccc(CNCCCNc2ccnc3cc(Cl)ccc23)c1O
Response line: 0.62

====

Each record here notes measured Tmax.
Protocol Text: Tmax in CD1 mouse at 50 mg/kg, po
Format: ADME, organism-based
Parameters: dose 50 mg/kg, route oral
Reported Conditions: in vivo
Give the quantity in min, number only.

> print(dat)
                                   molecule  assay.endpoint  value
1  CCN(CC)CCCC(C)Nc1ccnc2cc(Oc3ccccc3)ccc12 (stereo not given)            Tmax     30
2  CCN(CC)CCCC(C)Nc1ccnc2cc(Cl)ccc12 (stereo not given) [CHLOROQUINE]            Tmax     30
3        CCCN(CCCNc1ccnc2cc(Cl)ccc12)CC1CC1            Tmax     30
4     Clc1ccc2c(NCCCNCc3cccc4c3OCO4)ccnc2c1            Tmax    120

Now let's try a different one.
Prompt line: Look at this molecule and give its reported Tmax. COc1cccc(CNCCCNc2ccnc3cc(Cl)ccc23)c1O
Response line: 240
